Source of measurements: paper PMC5270246

# study target: GST-PPARγ LBD (Homo sapiens, UniProt P37231)
# Sequence (P37231 238-503 limits assumed): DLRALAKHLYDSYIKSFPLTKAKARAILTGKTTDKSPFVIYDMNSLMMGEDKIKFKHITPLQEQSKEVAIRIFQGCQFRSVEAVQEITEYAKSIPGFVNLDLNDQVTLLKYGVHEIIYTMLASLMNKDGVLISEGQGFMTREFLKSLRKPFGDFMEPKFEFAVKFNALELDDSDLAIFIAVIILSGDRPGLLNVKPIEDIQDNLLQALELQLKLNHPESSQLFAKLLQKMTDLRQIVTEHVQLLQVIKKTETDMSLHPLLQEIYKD
attribute measured: pKi
Scale explanation: pKi corresponds to minus log10 of a concentration expressed in moles per litre.

Check GST-PPARγ LBD (Homo sapiens, UniProt P37231) data and give pKi for O=C(NCc1ccccc1)c1ccc2c(ccn2Cc2ccc(Cl)c(F)c2)c1 . 8.09
